Assay: Single dose PK in healthy subjects (Cohorts 1, 2, S1 and S2), plasma
Format: in vivo, human
Settings: human, plasma, intravenous, 134.4 mg; 4 hr; read-out: Plasma concentration, Mean
test readout: concentration at 4 h (ng/mL)
Answers are plain numbers, in ng/mL.

Query (molecule): COC(=O)N1CCC[C@H](NS(C)(=O)=O)[C@@H]1CO[C@H]1CC[C@@H](c2ccccc2)CC1 ; field requested: concentration at 4 h
294

* * *

Test: Single dose PK in healthy subjects (Cohorts 1, 2, S1 and S2), plasma
Type: in vivo, human
Settings: human, plasma, intravenous, 180 mg; 1 hr; read-out: Plasma concentration, Q3
test readout: concentration at 1 h (ng/mL)
Give bare numbers, in ng/mL.

Using the record for COC(=O)N1CCC[C@H](NS(C)(=O)=O)[C@@H]1CO[C@H]1CC[C@@H](c2ccccc2)CC1 [Compound A] , report its concentration at 1 h.
229
